tested on: OVCAR-5 ovarian; test: NCI tumour cell line growth inhibition, 48 h; in the data active = GI50 below about 0.43 µM; inactive = the rest
Possible outcomes: active, inactive

chemical_structure | category_label
c1coc(-c2c3ccc(=[N+]4CCCCC4)cc-3oc3cc(N4CCCCC4)ccc23)c1 | active
Nc1ccc(-c2nc3ccccc3s2)cc1C(F)(F)F | inactive
O=C(c1ccco1)c1c(C(F)(F)F)n([O-])c2ccc(C(F)(F)F)cc2[n+]1=O | active
CC(C)c1[nH]nc2c1N=C(c1ccccc1Cl)c1cc([N+](=O)[O-])ccc1N2 | inactive
N#CCCN1C/C(=C/c2ccc(Br)cc2)C(=O)/C(=C/c2ccc(Br)cc2)C1 | inactive
N[C@H](CCC(=O)N[C@@H](Cc1c[nH]c2ccccc12)C(=O)O)C(=O)O | inactive
Cc1cc(Nc2nc(-c3cn(-c4ccc(Cl)cc4)nn3)nc3ccccc23)n[nH]1 | inactive
COc1cccc(/C=N/[N-]C(=O)c2ccncc2)c1[O-].COc1cccc(/C=N/[N-]C(=O)c2ccncc2)c1[O-].[O]=[U](=[O])([OH2+])[OH2+] | inactive
O=C(O)c1cccc(COc2ccc([N+](=O)[O-])cc2Cl)c1 | inactive

###

system: HOP-92 NSCLC; assay: NCI tumour cell line growth inhibition, 48 h
Lab note: anything with TGI at or over 20 µM counts as yes; the rest go in no.

compound | category_label
C=Cc1ccc(C)[n+](C[Si](C)(C)O[Si](C)(C)C[n+]2cc(C=C)ccc2C)c1 | yes
COc1ccc(-c2nccn2-c2ccc(OC)cc2)cc1 | yes
O=C(c1ccco1)c1c(C(F)(F)F)n([O-])c2ccc(C(F)(F)F)cc2[n+]1=O | no
COc1cc2nc(-c3cccs3)oc(=O)c2cc1OC | yes
Cn1c(=O)nc2n(-c3cc(C(F)(F)F)cc(C(F)(F)F)c3)c3ccccc3nc-2c1=O | yes
COc1c(O)c2c3c(c(C)cc(O)c3c1O)C(=O)C(O)(C(C)(C)C(C)=O)C2=O (stereo unspecified) | yes
CCOC(=O)NC(=O)c1cn(C2CCCCC2)c(=O)[nH]c1=O | yes
Cc1cc2c([N+](=O)[O-])cc3c(c2o1)C(=O)C=CC3=O | no
CC(C)=CCC/C(C)=C/COC(C)(C)C1=CCC(C)CC1 (stereo unspecified) (tested in a mixture with another compound) | yes
O=C(Nc1cc(Nc2ncccc2-c2ncnc3nc[nH]c23)ccc1F)c1cc(C(F)(F)F)cc(C(F)(F)F)c1 | no
COc1ccc(/C(C)=C(\c2ccc(OCCN3CCCCCC3)cc2)c2ccc(OC(=O)C3CCCCC3)cc2)cc1 | no
COc1ccc(-c2oc(/C=N/NC(N)=S)c([N+](=O)[O-])c2-c2ccc(OC)c(OC)c2)cc1OC | yes
Cc1cc(-c2nc3ccccc3s2)ccc1NC(=O)[C@@H](N)CCCCN | yes
COc1ccc(C(CC(=O)c2ccc3c(c2)OCO3)c2c(O)c3ccccc3oc2=O)cc1OC (stereo unspecified) | yes
CC(C)(C)c1ccc2c(c1)S(=O)(=O)Nc1ccc(Cl)cc1NS(=O)(=O)c1cc(C(C)(C)C)ccc1OCCOCCOCCO2 | yes
Nc1nc(-c2ccc(Cl)c([N+](=O)[O-])c2)cs1 | yes
Cc1cc(Nc2nc(-c3cn(-c4ccc(Cl)cc4)nn3)nc3ccccc23)n[nH]1 | yes
O=C1CC(C(O)(C(F)(F)F)C(F)(F)Cl)CCC1C(O)(C(F)(F)F)C(F)(F)Cl (stereo unspecified) | no
C/C1=C\CC[C@@]2(C)O[C@@H]2C[C@@H](C2(C)CO2)CC/C(C)=C/CC1 (stereo partly specified) | yes
O=C1CCCN1c1ccccc1I(=O)=O | yes
O=C(NCc1ccc(Cn2c(=O)sn(-c3ccccc3)c2=O)cc1)OCc1ccc2cccc(O)c2n1 | no
Cc1ccccc1C1=[N+]([O-])c2ccc(Cl)cc2C1=O | yes
Nc1c(-c2ccccc2-c2c(N)[n+]([O-])c3ccccc3[n+]2[O-])[n+]([O-])c2ccccc2[n+]1[O-] | yes
Nc1ccccc1C(=O)/C=C/c1c(O)ccc2ccccc12 | yes
CCN(CC)CCCCCCNc1cccc2cc(Br)cnc12 | no
N=C(N)c1ccc(-c2ccc(-c3cccs3)s2)cc1 | no
CC(C)CCC[C@@H](C)C1CCC2[C@@H]3CC=C4C[C@@H](C(=O)NCCN(C)C)CC[C@]4(C)C3CC[C@@]21C (stereo partly specified) | yes
CCc1ccc2c(c1)C(=O)c1c-2n(CCCN=[N+]=[N-])c(=O)c2cc([N+](=O)[O-])ccc12 | yes
CCNC(=O)/C(=C/c1ccc(OC)cc1)c1cc(OC)c(OC)c(OC)c1 | yes

###

test system: ACHN renal; assay: NCI tumour cell line growth inhibition, 48 h; in the data active = GI50 below about 0.43 µM; inactive = the rest
Classes used: 1 for active, -1 for inactive

chemical_structure | category_label
O=C(c1ccco1)c1c(C(F)(F)F)n([O-])c2ccc(C(F)(F)F)cc2[n+]1=O | 1
c1coc(-c2c3ccc(=[N+]4CCCCC4)cc-3oc3cc(N4CCCCC4)ccc23)c1 | 1
O=C(O)c1cccc(COc2ccc([N+](=O)[O-])cc2Cl)c1 | -1
COc1cccc(/C=N/[N-]C(=O)c2ccncc2)c1[O-].COc1cccc(/C=N/[N-]C(=O)c2ccncc2)c1[O-].[O]=[U](=[O])([OH2+])[OH2+] | -1

###

test system: SW-620 colon; experiment: NCI tumour cell line growth inhibition, 48 h

molecule | TGI
CC(C)(C)OC(=O)NCCC(N)=S | > 100 µM
COc1ccc(-c2cnnn2-c2nonc2-n2cccc2)cc1 | > 100 µM
CC(C)=C1CCC(CN(C)C)C1=O (centres undefined) | 20.2 µM
Nc1nc(N)c(N=O)c(Nc2ccc(Br)cc2)n1 | > 100 µM
CC(C(=O)c1ccc(Cl)cc1)/C(=N/NC(=O)NN)C(=O)Nc1cccc(C(F)(F)F)c1 (centres undefined) | > 100 µM
O=C(N/C(=C\c1ccc([N+](=O)[O-])cc1)c1nc2ccccc2[nH]1)c1ccccc1 | > 100 µM
NCCCN1CCN(CCCNc2ccc3nnn4c5ccccc5c(=O)c2c34)CC1 | > 100 µM
COc1ccc(CC2c3c(cc(OC)c(OC)c3OC)CCN2C)cc1OC (centres undefined) | > 100 µM
COc1ccc(C(=O)c2cc(OC)c(OC)c(OC)c2)cc1OC | > 100 µM
CCNC(=O)/C(=C/c1ccc(OC)cc1)c1cc(OC)c(OC)c(OC)c1 | > 100 µM
Nc1cc(Br)c(-c2nnc(CCC(=O)c3nc4ccccc4[nH]3)o2)c(Br)c1 | > 100 µM
CCOC(=O)c1nc2ccc(C(F)(F)F)cc2nc1Oc1ccc(C#N)cc1 | > 100 µM
COc1ccc(C(CC(=O)c2ccc3c(c2)OCO3)c2c(O)c3ccccc3oc2=O)cc1OC (centres undefined) | > 100 µM
CN(Cc1ccccc1)c1cc(=O)n(C)c(=O)[nH]1 | > 100 µM
Cc1cc(-c2nc3ccccc3s2)ccc1NC(=O)[C@@H](N)CCCCN | 25.3 µM
CCCCn1cnc2c(c(CC#N)nn2-c2ccccc2)c1=N | > 100 µM
S=c1[nH]c2ccc(Br)cc2c(=S)s1 | > 100 µM
O=C1NCCS(=O)(=O)N[C@@H](CC2=CC=CCC2)C(=O)N2CCCC12 (some centres undefined) | > 100 µM
CC12CCC3C(CCC4CC(OC(=O)Cc5ccc(N(CCCl)CCCl)cc5)CCC43C)C1CCC(=O)N2 (centres undefined) | 27.8 µM
CC1CN=C(N(C(=O)Nc2ccc(F)c(Cl)c2)c2ccccc2)S1 (centres undefined) | 90.3 µM
N#CC(=Nc1ccccc1N(C(=O)c1ccccc1)C(=O)c1ccccc1)c1ccccc1 | > 62.2 µM
O=c1ccn(C2OC(CO)C(P(=O)(O)O)C2O)c(=O)[nH]1 (centres undefined) | > 100 µM
Cn1cc(-c2csc(-c3cn(CCCCN4CCCCC4)c4ccccc34)n2)c2cccnc21 | 3.25 µM
COC(=O)/C([Se]c1c(C)cc(C)cc1C)=C(/[Se]c1c(C)cc(C)cc1C)C(=O)OC | > 100 µM
COc1c(C)n(CCO)ccc1=O | > 100 µM
NCCNCC1CCNCC1 | > 100 µM
CC(=O)c1cccn1/C=C(\OC(=O)OC(C)(C)C)c1ccc[nH]1 | > 100 µM
Nc1ccccc1C(=O)/C=C/c1c(O)ccc2ccccc12 | > 100 µM
CCOC(CNCCC(=O)OC)OCC | > 10 µM
CC1=NN(C(=O)CC(=O)Nc2ccccc2F)C(=O)C1N=Nc1ccccc1[N+](=O)[O-] (centres undefined) | > 100 µM
CC(=O)O/N=C/c1c2ccccc2cc2ccccc12 | > 100 µM
COC(c1ccc(C(C)(C)C)cc1)(c1ccc(C(C)(C)C)cc1)c1ccc(C(C)(C)C)cc1 | > 100 µM
Cc1ccccc1C1=[N+]([O-])c2ccc(Cl)cc2C1=O | 40.9 µM
COc1ccc(-c2nc(-c3cc(OC)cc(OC)c3)[nH]c2-c2ccc(OC)cc2)cc1 | > 100 µM
N[C@H](CCC(=O)N[C@@H](Cc1c[nH]c2ccccc12)C(=O)O)C(=O)O | > 100 µM
Nc1nc(Cl)cc(NCC2(CO)CCC(CCc3ccccc3)C2)n1 (centres undefined) | 36 µM
Nc1c(-c2ccccc2-c2c(N)[n+]([O-])c3ccccc3[n+]2[O-])[n+]([O-])c2ccccc2[n+]1[O-] | > 100 µM
CSC(=Nc1ccccc1)N(c1ccccc1)c1nc(=[N+](C)C)ss1 | 3.27 µM
Cc1ccc(OCCOCCOCCOCCOc2ccc(C)n(O)c2=S)c(=S)n1O | > 100 µM
NC(CC1=CS(=O)(=O)c2ccc(Cl)cc21)C(=O)O (centres undefined) | > 100 µM
COC(=O)c1cc2c(cc1CC1Cc3cc4c(cc3C1)CCC4)CCC2 | > 100 µM
CCN(CC)CCCCCCNc1cccc2cc(Br)cnc12 | 14.7 µM
CCN(CC)CCCNC(=O)c1ccc([N+](=O)[O-])cc1O | > 100 µM
COC(C)(C)[C@@H](O)[C@H]1C[C@H](C)[C@@]2(CC[C@]3(C)[C@@H]2CC[C@@H]2[C@@]4(C)CC[C@@H](OC(C)=O)C(C)(C)[C@@H]4C[C@@H](OC4OC(COC(C)=O)C(O)C(O)C4O)[C@]23C)O1 (some centres undefined) | 20.2 µM
